Target: [^3 H]-imipramine binding to human platelet membranes (Homo sapiens)
Construct: from tissue; host or cells: human platelets (sonicated, washed membranes)
Sequence (P31645 whole entry): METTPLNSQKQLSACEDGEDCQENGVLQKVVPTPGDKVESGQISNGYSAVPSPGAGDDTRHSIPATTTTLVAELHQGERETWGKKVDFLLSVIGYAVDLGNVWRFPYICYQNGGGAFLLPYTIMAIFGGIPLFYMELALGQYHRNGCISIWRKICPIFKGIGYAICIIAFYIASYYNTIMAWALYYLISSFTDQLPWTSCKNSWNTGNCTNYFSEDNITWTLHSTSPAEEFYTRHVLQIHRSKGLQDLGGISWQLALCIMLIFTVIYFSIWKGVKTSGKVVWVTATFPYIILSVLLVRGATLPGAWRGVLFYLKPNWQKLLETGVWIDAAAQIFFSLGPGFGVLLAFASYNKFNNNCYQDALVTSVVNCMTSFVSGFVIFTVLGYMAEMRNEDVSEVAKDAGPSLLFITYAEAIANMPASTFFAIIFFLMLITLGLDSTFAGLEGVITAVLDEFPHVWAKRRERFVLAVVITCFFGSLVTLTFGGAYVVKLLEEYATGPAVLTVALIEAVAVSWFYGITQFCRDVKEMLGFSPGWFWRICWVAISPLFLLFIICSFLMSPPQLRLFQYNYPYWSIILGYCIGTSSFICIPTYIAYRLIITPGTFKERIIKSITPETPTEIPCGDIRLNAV
Test: Platelet Imipramine Binding: inhibition of [^3 H]-imipramine binding to human platelet membranes
Details: 50 μl of 50 μM compound stock + 200 μl membrane/[^3 H]imipramine mixture; 60 minutes at 0° C.; 10 μM desmethylimipramine = 0% binding
Structures can show the parent of a compound that is named as a salt.
ENDPOINT: inhibition at 10 µM (%)

- COMPOUND: "CN1C[C@@H]2[C@@H]3CC[C@@H](C3)[C@]2(c2ccc([N+](=O)[O-])cc2)C1 (relative stereo)"
  ENDPOINT: "inhibition at 10 µM"
  UNITS_SYMBOL: "%"
  RECORDED_RESULT: 66
- COMPOUND: "CN1C[C@@H]2[C@@H]3C=C[C@@H](C3)[C@]2(c2cccc(C(F)(F)F)c2)C1 (relative stereo) [fumarate]"
  ENDPOINT: "inhibition at 10 µM"
  UNITS_SYMBOL: "%"
  RECORDED_RESULT: 91
- COMPOUND: "CN1C[C@@H]2[C@@H]3CC[C@@H](C3)[C@]2(c2ccc(Cl)c(Cl)c2)C1 (relative stereo) [hydrochloride]"
  ENDPOINT: "inhibition at 10 µM"
  UNITS_SYMBOL: "%"
  RECORDED_RESULT: 93
- COMPOUND: "Clc1ccc([C@@]23CNC[C@@H]2[C@@H]2CC[C@H]3C2)cc1Cl (relative stereo) [hydrochloride]"
  ENDPOINT: "inhibition at 10 µM"
  UNITS_SYMBOL: "%"
  RECORDED_RESULT: 96

# credit: patent US4529736A
